Hey, just so you know, these numbers are from PubChem BioAssay (NCI).

Assay: NCI Yeast Anticancer Drug Screen. Data for the rad50 strain (AID 155);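 note: 0% = growth of vehicle-only cultures of the same strain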
Details: S. cerevisiae rad50 strain growth inhibition; at 50.0 µM; active compounds read high
Compounds without any hit were thinned out: in the full panel of roughly 79,000, 15% have a hit. The source made the active and inactive calls. Cut-off read from the data, not from the text of the source: active = growth inhibition above about 70%; inactive = the rest.
quantityName: growth inhibition

CCCCCCCCCCCCCCN ... 90.3% (active)

Please examine the following record next.
Enquiry: Any idea what its growth inhibition is? The molecule is Clc1nc(Cl)nc(Nc2cccc3ccccc23)n1
Return: 86.9% (active)

---

Assay: NCI Yeast Anticancer Drug Screen. Data for the bub3 strain (AID 167)
Settings: S. cerevisiae bub3 mutant strain, at 50.0 µM (retest, dose inferred, filed as 5.0), active compounds read high
Compounds without any hit were thinned out: in the full panel of roughly 79,000, 15% have a hit.
Label scheme for growth inhibition: lower than 60% is not fulfilled, 60% and above is fulfilled.

Enquiry: Decide: is the reported value of growth inhibition for COc1cc(C(=O)C=O)cc(OC)c1OC equal to or greater than 60%?
Return: not fulfilled

Enquiry: Could you verify whether the entry c1ccc([P+](CCN2Cc3ccccc3C2)(c2ccccc2)c2ccccc2)cc1 shows growth inhibition of no less than 60%?
Return: fulfilled

Enquiry: Is growth inhibition for Cn1c(-c2ccc(/C=N\N3CCN(/N=C/c4ccc(-c5c[n+]6ccsc6n5C)cc4)CC3)cc2)c[n+]2ccsc12 at or above 60%?
Return: not fulfilled

Enquiry: Decide: growth inhibition of NCCOc1ccc(/C(=C(/Cl)c2ccccc2)c2ccccc2)cc1 >= 60%?
Return: fulfilled

Enquiry: # check: growth inhibition of O=C1/C(=C/c2ccc(Cl)c(Cl)c2)CNC/C1=C\c1ccc(Cl)c(Cl)c1 is greater than or equal to 60%
Return: fulfilled
